Origin of values: patent US10206907B2

test system: MMP13 in SW1353 cells; assay: OSM/IL-1β signaling assay (MMP13 levels in SW1353 cells); format: cell-based; conditions: Homo sapiens; SW1353 cells, OSM and IL-1β triggered, MMP13 levels 48 hours after triggering; read-out: MMP13 EC50;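 further: secreted MMP13 captured by antibody, activated with APMA and its activity read by fluorescence, inhibition scaled between vehicle-treated triggered wells (0%) and untriggered wells (100%)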
Examples of compounds with documented EC50 follow.

See these solved cases before continuing.
CN1CCN(C(=O)c2ccc(-c3cccc4nc(NC(=O)C5CC5)nn34)cc2)CC1 [Compound 71] = > 1000 nM
CN(C(=O)c1ccc(-c2cccc3nc(NC(=O)C4CC4)nn23)cc1)c1ccccc1 [Compound 30] = > 1000 nM
O=C(Cc1ccccc1)Nc1ccc(-c2cccc3nc(NC(=O)C4CC4)nn23)cc1 [Compound 23] = > 1000 nM
O=C(Nc1nc2cccc(-c3ccc(OCc4ccccc4)nc3)n2n1)C1CC1 [Compound 57] = > 1000 nM
N#CCc1ccccc1NCc1ccc(-c2cccc3nc(NC(=O)C4CC4)nn23)cc1 [Compound 225] = 1 to 500 nM

Q: Requested field: EC50. Item: O=C(NCCc1ccccc1)c1ccc(-c2cccc3nc(NC(=O)C4CC4)nn23)cc1 [Compound 87]
A: 501 to 1000 nM

Q: Could you share which EC50 value was measured for Cn1ccc(COc2ccc(-c3cccc4nc(NC(=O)C5CC5)nn34)cc2)n1 [Compound 48] ?
A: > 1000 nM

Q: Requested field: EC50. Item: N#CC1CN(C(=O)c2ccc(-c3cccc4nc(NC(=O)C5CC5)nn34)cc2)C1 [Compound 328]
A: > 1000 nM

----------
system: JAK-STAT signalling in HeLa cells; assay: JAK-STAT signalling assay (OSM-triggered pSTAT1(2)-luciferase reporter in HeLa cells); format: cell-based; conditions: Homo sapiens; HeLa cells, OSM-triggered pSTAT1(2)-luciferase reporter; read-out: STAT signalling EC50
METRIC_NAME: EC50

Examples with their reported EC50 follow.
O=C(NC1CCCCC1)c1ccc(-c2cccc3nc(NC(=O)C4CC4)nn23)cc1 [Compound 26] = > 1000 nM
O=C(Nc1nc2cccc(-c3ccc(C(=O)N4CCCC(c5ccccc5)C4)cc3)n2n1)C1CC1 (centres unmarked) [Compound 169] = > 1000 nM
O=C(Nc1nc2cccc(-c3ccc(CNc4ccccn4)cc3)n2n1)C1CC1 [Compound 244] = 501 to 1000 nM

Q: What is its EC50 for JAK-STAT signalling in HeLa cells? Entry: O=C(COc1ccc(-c2cccc3nc(NC(=O)C4CC4)nn23)cc1)Nc1cccc(F)c1 [Compound 116]
A: > 1000 nM

Q: Find EC50 (JAK-STAT signalling in HeLa cells) for the entry O=C(NCc1ccc(-c2cccc3nc(NC(=O)C4CC4)nn23)cc1)C1CC1 [Compound 272]
A: > 1000 nM

Q: Tell me reported EC50 for CN(C(=O)c1ccc(-c2cccc3nc(NC(=O)C4CC4)nn23)cc1)c1ccccc1 [Compound 30] , tested with JAK-STAT signalling in HeLa cells.
A: 501 to 1000 nM

----------
Quick reference: pIC50 of the listed items.
biological target: Recombinant human JAK1 catalytic domain (Homo sapiens (Human)); assay: JAK1 inhibition assay; assay type: biochemical; details: semi-quantitative score
Sequence (P23458 850-1154): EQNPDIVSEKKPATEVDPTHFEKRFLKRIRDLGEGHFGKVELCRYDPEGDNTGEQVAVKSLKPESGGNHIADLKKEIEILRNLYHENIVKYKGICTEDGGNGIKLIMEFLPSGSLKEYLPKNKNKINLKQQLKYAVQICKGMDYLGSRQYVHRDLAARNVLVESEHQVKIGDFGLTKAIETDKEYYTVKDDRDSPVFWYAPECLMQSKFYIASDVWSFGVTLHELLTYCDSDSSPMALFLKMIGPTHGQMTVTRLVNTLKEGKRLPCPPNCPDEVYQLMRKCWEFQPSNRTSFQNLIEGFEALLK
pIC50: −log10 of the molar value.

Use these answered entries as a reference point.
Cc1cc(COc2ccc(-c3cccc4nc(NC(=O)C5CC5)nn34)cc2)nn1C = > 7.00
O=C(Nc1nc2cccc(-c3ccc(OCc4cccc(OC(F)(F)F)c4)cc3)n2n1)C1CC1 = 6.30 to 7.00
O=C(NCc1ccc(-c2cccc3nc(NC(=O)C4CC4)nn23)cc1)C1CC1 = > 7.00
CCCc1cc(C(=O)Nc2ccc(-c3cccc4nc(NC(=O)C5CC5)nn34)cc2)n(C)n1 = 6.30 to 7.00
O=C(Nc1nc2cccc(-c3ccc(C(=O)N4CCCNCC4)cc3)n2n1)C1CC1 = 6.30 to 7.00
O=C(NCCc1ccc(C(F)(F)F)cc1)c1ccc(-c2cccc3nc(NC(=O)C4CC4)nn23)cc1 = > 7.00
O=C(Nc1nc2cccc(-c3ccc(CNc4ncccn4)cc3)n2n1)C1CC1 = > 7.00

Then there is this compound:
Q: // query pIC50 value for entry O=C(Nc1nc2cccc(-c3ccc(N4CCOCC4)cc3)n2n1)C1CC1
A: < 6.00

----------
assay: Microsomal stability, rat liver microsomes; format: in vitro ADME; details: percentage of compound remaining after 60 minutes, 3 μM compound
METRIC_NAME: Microsomal Stability Rat (%)

A selection of reference data follows.
O=C(Nc1nc2cccc(-c3ccc(CNc4ccc(Cl)cc4F)cc3)n2n1)C1CC1 [Compound 212] = ** (** 26-50)
O=C(NCCc1cnn(-c2ccccc2)c1)c1ccc(-c2cccc3nc(NC(=O)C4CC4)nn23)cc1 [Compound 106] = * (* 0-25)
CN(C(=O)COc1ccc(-c2cccc3nc(NC(=O)C4CC4)nn23)cc1)c1ccccc1 [Compound 118] = * (* 0-25)
O=C(NCc1cccnc1)c1ccc(-c2cccc3nc(NC(=O)C4CC4)nn23)cc1 [Compound 42] = **** (**** 76-100)
COC(=O)c1ccc(COc2ccc(-c3cccc4nc(NC(=O)C5CC5)nn34)cc2)nc1 [Compound 190] = * (* 0-25)

Q: Item under review: O=C(Nc1nc2cccc(-c3ccc(CC(=O)N4CCC(C(F)(F)F)CC4)cc3)n2n1)C1CC1 [Compound 319] . Reported Microsomal Stability Rat (%)?
A: * (* 0-25)

Q: // lookup Microsomal Stability Rat (%) for O=C(Nc1nc2cccc(-c3ccc(C(=O)N4CCCCC4)cc3F)n2n1)C1CC1 [Compound 89]
A: * (* 0-25)

Q: Give its Microsomal Stability Rat (%) value. Item: O=C(NCCCc1ccccc1)c1ccc(-c2cccc3nc(NC(=O)C4CC4)nn23)cc1 [Compound 114]
A: * (* 0-25)

----------
Each entry below lists one item and its recorded pIC50 value.
Target: Recombinant human JAK1 catalytic domain (Homo sapiens (Human))
Experiment: JAK1 inhibition assay
Format: biochemical
Conditions: semi-quantitative score
Experimental: Plates were washed 6 times with 300 μL per well of a 75 mM phosphoric acid solution and the bottom of the plates was sealed. 40 μL/well of Microscint-20 was added, the top of the plates was sealed and readout was performed using the Topcount (Perkin Elmer). Kinase activity was calculated by subtracting counts per minute (cpm) obtained in the presence of a positive control inhibitor (10 μM staurosporine) from cpm obtained in the presence of vehicle. […]
pIC50: −log10 of the molar value.

See these solved cases before continuing.
O=C(Nc1nc2cccc(-c3ccc(CNC(=O)N4CCOCC4)cc3)n2n1)C1CC1 = 6.30 to 7.00
Cc1nccn1CCC1CCN(C(=N)c2ccc(-c3cccc4nc(NC(=O)C5CC5)nn34)cc2)CC1 = 6.30 to 7.00

Q: What value of pIC50 has been recorded for this entry: O=C(Nc1nc2cccc(-c3ccc(NCCc4ccccc4)nc3)n2n1)C1CC1
A: > 7.00

Q: Please give the measured pIC50 for this compound: CN(C(=O)c1ccc(-c2cccc3nc(NC(=O)C4CC4)nn23)cc1)c1ccccc1
A: > 7.00

Q: Request the reported pIC50 associated with O=C(Nc1nc2cccc(-c3ccc(-c4ccccc4)nc3)n2n1)C1CC1
A: 6.30 to 7.00

----------
tested on: JAK-STAT signalling in HeLa cells; assay: JAK-STAT signalling assay (OSM-triggered pSTAT1(2)-luciferase reporter in HeLa cells); assay type: cell-based; settings: Homo sapiens; HeLa cells, OSM-triggered pSTAT1(2)-luciferase reporter; read-out: STAT signalling EC50
pEC50: −log10 of the molar value.
Listed here are molecules together with their documented pEC50.

Example molecules with recorded pEC50:
CC1CCN(C(=O)c2ccc(-c3cccc4nc(NC(=O)C5CC5)nn34)cc2)CC1 = < 6.00
O=C(Nc1nc2cccc(-c3ccc(-c4cccnc4)cc3)n2n1)C1CC1 = < 6.00
O=C(Nc1nc2cccc(-c3ccc(CC(=O)N4CCS(=O)(=O)CC4)cc3)n2n1)C1CC1 = < 6.00

Q: Dear colleague, I am looking for the recorded pEC50 of the following molecule: O=C(Nc1nc2cccc(-c3ccc(NCc4ccccc4)nc3)n2n1)C1CC1
A: < 6.00

Q: Query (molecule): Cc1cc(COc2ccc(-c3cccc4nc(NC(=O)C5CC5)nn34)cc2)no1 ; field requested: pEC50
A: 6.00 to 6.30

----------
assay: Caco2 permeability (bi-directional); type: in vitro ADME, human; conditions: human, pH 7.4; Caco-2, ratio of PappB>A/PappA>B
METRIC_NAME: efflux ratio at 1 h, 10 µM
Give only the figure.

Q: Need efflux ratio at 1 h, 10 µM of O=C(CCc1ccccc1)Nc1ccc(-c2cccc3nc(NC(=O)C4CC4)nn23)cc1 , thanks.
A: 2.5

Q: What does the data say about its efflux ratio at 1 h, 10 µM? Entry: O=C(Nc1nc2cccc(-c3ccc(S(=O)(=O)NC4CC4)cc3)n2n1)C1CC1
A: 11.9
